I'd appreciate it if you could supply pEC50 values for the items below.
target: human mAChR M1 (Homo sapiens, UniProt P11229); test: mAChR M1 cell-based functional assay: calcium mobilization, positive allosteric modulator mode (increase in EC20 acetylcholine response); details: Table 1; mAChR M1 cell-based functional assay, PAM mode; species not given; read-out: EC50
Sequence (P11229 whole entry): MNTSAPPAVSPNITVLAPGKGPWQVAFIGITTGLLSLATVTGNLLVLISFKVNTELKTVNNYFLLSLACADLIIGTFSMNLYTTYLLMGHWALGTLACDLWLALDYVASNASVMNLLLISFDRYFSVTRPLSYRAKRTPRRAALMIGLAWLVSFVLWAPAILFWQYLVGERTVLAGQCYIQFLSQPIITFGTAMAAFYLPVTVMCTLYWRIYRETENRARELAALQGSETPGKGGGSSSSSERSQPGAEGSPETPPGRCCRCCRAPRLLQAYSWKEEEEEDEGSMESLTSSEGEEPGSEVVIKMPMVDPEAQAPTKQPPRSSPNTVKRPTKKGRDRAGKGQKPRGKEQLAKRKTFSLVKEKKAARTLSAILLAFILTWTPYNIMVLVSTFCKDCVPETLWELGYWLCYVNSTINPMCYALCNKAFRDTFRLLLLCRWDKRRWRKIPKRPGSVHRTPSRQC
pEC50: −log10 of the molar value.

Answered examples (3):
Cn1cc2c(-c3ccc(Oc4cc(C(=O)N[C@H]5COCC[C@@H]5O)nc5ccsc45)c(F)c3)cccc2n1 [Compound 14]
5.37
Cc1ccc(Oc2cc(C(=O)N[C@@H]3CC[C@H]3O)nc3ccsc23)cn1 [Compound 16]
< 5.00
Cc1ccc(Oc2cc(C(=O)NC(CO)C3CC3)nc3ccsc23)cn1 (centres unmarked) [Compound 30]
< 5.00

I have 6 compounds here; please give me pEC50 for each one.
1. COCCNC(=O)c1cc(Oc2ccc(C)nc2)c2sccc2n1 [Compound 33]
2. Cc1ccc(Oc2cc(C(=O)N[C@H]3COCC[C@@H]3O)nc3ccsc23)cn1 [Compound 23]
3. Cc1ccc(Cc2cc(C(=O)N[C@@H]3CC[C@H]3O)nc3ccsc23)cn1 [Compound 44]
4. Cc1ccc(Oc2cc(C(=O)NC3CCCCNC3=O)nc3ccsc23)cn1 (centres unmarked) [Compound 36]
5. Cc1ccc(Oc2cc(C(=O)NCC3CCCO3)nc3ccsc23)cn1 (centres unmarked) [Compound 35]
6. Cc1ccc(Oc2cc(C(=O)NC(C)C(C)(C)CO)nc3ccsc23)cn1 (centres unmarked) [Compound 34]

Reply text:
1. < 5.00
2. < 5.00
3. 5.42
4. < 5.00
5. < 5.00
6. < 5.00

I have 2 compounds here; please give me pEC50 for each one.
1. Cc1ccc(Cc2cc(C(=O)NC3CCCC(O)C3)nc3ccsc23)cn1 (centres unmarked) [Compound 49]
2. Cc1ccc(Oc2cc(C(=O)NCC(C)(C)O)nc3ccsc23)cn1 [Compound 32]

Reply text:
1. < 5.00
2. < 5.00
